Test system: Fibroblast
procedure-text: Multiplex assay against human fibroblast
Type: toxicity, cell-based
particulars: 24 h, 10 µM, compound concentration 10 uM, replicate 1
So I've got a bunch of compounds here, and I need their Population Pyknosed Nuclei (%) values.
Entry rule: numbers only, all in %.

Population Pyknosed Nuclei (%) recorded for this compound, "COc1cc2nccc(Oc3ccc(NC(=O)Nc4cc(C)on4)c(Cl)c3)c2cc1OC.O" , is 29

Noted for COc1cccc([C@@H](C)NCCCc2ccccc2Cl)c1.Cl [TECALCET HYDROCHLORIDE] : its Population Pyknosed Nuclei (%) reads 21

Lab book: Population Pyknosed Nuclei (%) of C=CC(=O)Nc1cc2c(Nc3ccc(F)c(Cl)c3)ncnc2cc1OCCCN1CCOCC1.Cl.Cl [CANERTINIB DIHYDROCHLORIDE] noted as 12

The compound identified as "Cc1cc(C)cc(-c2cnc3cc(Cl)c(-c4cccc(O)c4)cc3c2OCCCN)c1" registered its Population Pyknosed Nuclei (%) at 54

Given item "c1cn2cc(-c3ccc4cn[nH]c4c3)nc(Nc3ccc(N4CCOCC4)cc3)c2n1" , the value recorded as its Population Pyknosed Nuclei (%) is 74

compound CN(C)C(=O)N[C@H]1CC[C@H](CCN2CCN(c3cccc(Cl)c3Cl)CC2)CC1.Cl [CARIPRAZINE HYDROCHLORIDE] , Population Pyknosed Nuclei (%) observed: 21

The compound listed as "Cc1nc(Nc2n[nH]c3c2CN(C(=O)N[C@H](CN(C)C)c2ccccc2)C3(C)C)c2sccc2n1" has a reported Population Pyknosed Nuclei (%) of 15

Entry "Cc1c(-c2ccc(O)cc2)n(Cc2ccc(OCCN3CCCCCC3)cc2)c2ccc(O)cc12" , Population Pyknosed Nuclei (%) reported as 41
